tested.system: anti-CD28 scFv (VH - linker 1 - VL) (biotinylated (site not stated))
Sequence (scFv, as listed by the source): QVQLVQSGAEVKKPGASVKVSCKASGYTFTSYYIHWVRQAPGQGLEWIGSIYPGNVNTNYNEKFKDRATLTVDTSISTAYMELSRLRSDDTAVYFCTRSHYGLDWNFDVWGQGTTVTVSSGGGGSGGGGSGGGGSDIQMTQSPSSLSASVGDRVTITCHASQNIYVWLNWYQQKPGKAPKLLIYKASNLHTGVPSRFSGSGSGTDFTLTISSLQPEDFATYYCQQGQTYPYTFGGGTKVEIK
test.summary: phage ELISA; biotinylated anti-CD28 scFv on neutravidin plate, clonal phage supernatant, anti-M13-HRP detection;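 also: before phage addition, wells were pretreated with soluble CD28 protein in blocking buffer, or with blocking buffer only as the comparison, then phage were added without washing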
Where no end group is shown, it is not given here.
Examples of binders with documented CD28 scFv signal follow.
readout.type: CD28 scFv signal

>  <binder>
MDWCPRHMWNYCFA (peptide, not shown: large carriers, cysteine pairing not given here; also: displayed on phage as fusion to pIII, linker and pIII sequence not given here, Clonal phage supernatant) [Phage-34]

>  <readout.type>
CD28 scFv signal

>  <numeric.value>
2.71

$$$$
>  <binder>
MDWCPRDLWHLCFS (peptide, not shown: large carriers, cysteine pairing not given here; also: displayed on phage as fusion to pIII, linker and pIII sequence not given here, Clonal phage supernatant) [Phage-27]

>  <readout.type>
CD28 scFv signal

>  <numeric.value>
2.59

$$$$
>  <binder>
MDWCPRDLWSECFF (peptide, not shown: large carriers, Clonal phage supernatant) [Phage-28]

>  <readout.type>
CD28 scFv signal

>  <numeric.value>
2.57

$$$$
>  <binder>
MDWCPIDLWNECFF (peptide, not shown: large carriers, cysteine pairing not given here; also: phage-displayed pIII fusion, pIII and linker not given here, Clonal phage supernatant) [Phage-19]

>  <readout.type>
CD28 scFv signal

>  <numeric.value>
2.52

$$$$
>  <binder>
MDWCPRDMWDECFA (peptide, not shown: large carriers, cysteine pairing not given here; also: peptide displayed as fusion to phage pIII, Clonal phage supernatant) [Phage-30]

>  <readout.type>
CD28 scFv signal

>  <numeric.value>
2.59

$$$$
